# STUDY SYSTEM: Insulin-regulated aminopeptidase (Homo sapiens)
# ASSAY INFO: Inhibition of recombinant human IRAP using L-AMC as substrate preincubated for 30 mins followed by substrate addition and measured after 1 hr by fluorescence based assay
Strictly below 40 µM in IC50: 1.0. Otherwise: 0.0.

{"COMPOUND": "O=C(Cc1ccc(S(=O)(=O)N2CCCCC2)s1)NO", "CLASSIFICATION": 1.0}
{"COMPOUND": "CN1C(=O)SC(Cc2ccc(C(=O)O)cc2)C1=O (configuration not stated)", "CLASSIFICATION": 1.0}
{"COMPOUND": "O=C(NO)c1ccc(S(=O)(=O)N2CCCCC2)s1", "CLASSIFICATION": 0.0}
{"COMPOUND": "O=C(O)c1cccc(S(=O)(=O)N2CCCCC2)c1", "CLASSIFICATION": 1.0}
{"COMPOUND": "O=C(O)c1cccc(S(=O)(=O)N2CCC(F)CC2)c1", "CLASSIFICATION": 1.0}
{"COMPOUND": "O=C(O)c1cccc(S(=O)(=O)N2CCCC2)c1", "CLASSIFICATION": 0.0}
